Please provide measured abundance fitness for the entries that follow.
B1: Far upstream element-binding protein 3, residues 75 to 150; numbered along this chain, Q96I24 (parent)
chain: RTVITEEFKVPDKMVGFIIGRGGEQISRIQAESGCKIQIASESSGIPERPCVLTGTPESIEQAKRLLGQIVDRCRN

Variants of: B1
assayNotes: abundance fitness (aPCA) (normalised: wild type 0, dead -1); higher = more abundant; growth selection in yeast, the domain comes from the species named
testParameters: Homo sapiens
Number, no unit, nothing else.

Need abundance fitness, item Q62F
-0.043

Queued: D12R
-0.1

Follow-up item: E42Q
-0.035

Now give it for E6P too.
-0.807

Ok, now C74D
-0.068

Follow-up item: S27W
-0.167

Note, next up: G68W
-0.065

What about A40F ?
0.013

# iterate: T56K
-0.166

Same thing, different variant: E48L
-0.068

Entry N76W please
-0.092

Lookup F8Q
-0.34

Here is the next variant: I70R
-0.024

Ok, now I39A
-0.437

Could you do the same for P57K , please?
-0.009

Another variant: E42L
-0.086

Would you mind doing Q25R as well?
0.023

# repeat for S44P
-0.058

Lookup T5K
-0.068

Again, but for E48N
-0.1

Next variant up: T2R
0.014

Next variant up: R28F
-0.218

Also, I60M please.
-0.343

Input F17Q
-0.031

And for V52C ?
-0.093

Entry G34E please
-0.089

What about V52N ?
-0.133

Also, G45H please.
-0.065

Try I37D next.
-0.528

Again, but for C35V
-0.157

Same lookup for G20W , please.
-0.483

Now the variant L53A
-0.473

// data source = the Human Domainome abundance scans (Beltran et al. 2025)
